tested on: MDA-MB-468; assay: normalised response (% of control), CellTiter-Glo; higher = more viable cells (100 = DMSO, 0 = benzethonium chloride kill control); conditions: incubation time: 72 h
Recorded normalised response by entry
Lab note: write values as number then unit, every time.

MOLECULE	MEASURED ON	RESULT
CCCc1cc(C)[nH]c(=O)c1CNC(=O)c1cc(-c2ccnc(N3CCN(C)CC3)c2)cc2c1cnn2C(C)C [GSK343] (10000 nM)	MDA-MB-468	11.1%
Cc1c(N)nc([C@H](CC(N)=O)NC[C@H](N)C(N)=O)nc1C(=O)N[C@H](C(=O)N[C@H](C)[C@@H](O)[C@H](C)C(=O)N[C@H](C(=O)NCCc1nc(-c2nc(C(=O)NCCC[S+](C)C)cs2)cs1)[C@@H](C)O)[C@@H](OC1OC(CO)C(O)C(O)C1OC1OC(CO)C(O)C(OC(N)=O)C1O)c1cnc[nH]1 (some centres undefined) [Bleomycin] (10000 nM)	MDA-MB-468	48.8%
Nc1nc(Cl)nc2c1ncn2[C@@H]1O[C@H](CO)[C@@H](O)[C@@H]1F [Clofarabine] (10000 nM)	MDA-MB-468	16.4%

Returns the measured normalised response for the input molecule. Input: O=C(c1cc(Cc2n[nH]c(=O)c3ccccc23)ccc1F)N1CCN(C(=O)C2CC2)CC1 [Olaparib] (10000 nM)
69.5%

* * *

system: MCF-10A; test: normalised response (% of control), CellTox Green; higher = less cell death (100 = DMSO, 0 = benzethonium chloride kill control); details: incubation time: 72 h
Hi, to clarify the labels: 1 covers normalised response from 90% upward, -1 covers anything below 90%.

// below: answered molecules
MOLECULE	ASSIGNED CLASS
COc1cc2c(cc1-c1c(C)noc1C)ncc1[nH]c(=O)n([C@H](C)c3ccccn3)c12 [I-BET151] (10000 nM)	-1
CCc1cnn2c(NCc3ccc[n+]([O-])c3)cc(N3CCCC[C@H]3CCO)nc12 [Dinaciclib] (100 nM)	-1
CC(C)C(=O)Nc1ccc([N+](=O)[O-])c(C(F)(F)F)c1 [Flutamide] (100 nM)	-1
CCc1cnn2c(NCc3ccc[n+]([O-])c3)cc(N3CCCC[C@H]3CCO)nc12 [Dinaciclib] (1000 nM)	-1

Can Cn1cc(C[C@@H](N)C(=O)O)c2ccccc21 [1-methyl-D-tryptophan] (50 nM) be said to have normalised response at or above 90%?
1

Would you say CCN(CC)CCOc1ccc(C(=C(Cl)c2ccccc2)c2ccccc2)cc1 [Clomifene] (100 nM) shows normalised response at minimum 90%?
1

Hi, just wondering whether CCCCCOC(=O)Nc1nc(=O)n([C@@H]2O[C@H](C)[C@@H](O)[C@H]2O)cc1F [Capecitabine] (10000 nM) shows normalised response of 90% or higher.
-1

Reported normalised response at or above 90%? Nc1nc(Cl)nc2c1ncn2[C@@H]1O[C@H](CO)[C@@H](O)[C@@H]1F [Clofarabine] (100 nM)
1

Entry CN1CCc2c(c3ccccc3n2Cc2ccc(C(=O)NO)cc2)C1 [Tubastatin A] (10000 nM) : is its normalised response no less than 90%?
1

Test whether the molecule CCCc1cc(C)[nH]c(=O)c1CNC(=O)c1cc(-c2ccnc(N3CCN(C)CC3)c2)cc2c1cnn2C(C)C [GSK343] (1000 nM) records normalised response of 90% or higher.
1

Is reported normalised response greater than or equal to 90% here: C[C@]12C=CC(=O)C=C1CC[C@@H]1[C@@H]2C(=O)C[C@@]2(C)[C@H]1CC[C@]2(O)C(=O)CO [Prednisone] (100 nM)
-1

Assess whether reported normalised response for NC(=O)c1cccc2cn(-c3ccc([C@@H]4CCCNC4)cc3)nc12 [MK-4827] (100 nM) sits at 90% or higher.
-1

Reported normalised response at or above 90%? CCc1c(C(=O)C(N)=O)c2c(OCC(=O)O)cccc2n1Cc1ccccc1 [Varespladib] (10000 nM)
1

Could you verify whether the entry COc1cc2c(Oc3ccc(NC(=O)C4(C(=O)Nc5ccc(F)cc5)CC4)cc3F)ccnc2cc1OCCCN1CCOCC1 [Foretinib] (1000 nM) shows normalised response of no less than 90%?
1

Textbook exercise: given the entry CC/C(=C(\c1ccccc1)c1ccc(OCCN(C)C)cc1)c1ccccc1 [Tamoxifen] (1000 nM) , state whether its normalised response is greater than or equal to 90%.
1

Answer whether normalised response of O=C(O)CC[C@H]1CC[C@@](c2cc(F)ccc2F)(S(=O)(=O)c2ccc(Cl)cc2)CC1 [MK-0752] (100 nM) is greater than or equal to 90%.
1

* * *

tested on: SK-BR-3; assay: normalised viability (% of control), CellTiter-Blue; higher = more viable cells (about 100 = DMSO control); details: 1000 nM; incubation time: 72 h
QUANTITY MEASURED: normalised viability (%)
Expressed in %, but write only the number.

Some solved cases for reference:
COMPOUND	MEASURED ON	UNIT DESCRIPTOR	normalised viability
COc1cc2c(N3CCN(C(=O)Nc4ccc(OC(C)C)cc4)CC3)ncnc2cc1OCCCN1CCCCC1 [Tandutinib]	SK-BR-3	%	114
COc1cc2c(Oc3ccc(NC(=O)C4(C(=O)Nc5ccc(F)cc5)CC4)cc3F)ccnc2cc1OCCCN1CCOCC1 [Foretinib]	SK-BR-3	%	77.5
Nc1nc(Cl)nc2c1ncn2[C@@H]1O[C@H](CO)[C@@H](O)[C@@H]1F [Clofarabine]	SK-BR-3	%	41.9
Cc1cc2c(F)c(Oc3ncnn4cc(OC[C@@H](C)O)c(C)c34)ccc2[nH]1 [Brivanib]	SK-BR-3	%	113

Fill in the recorded normalised viability for this compound, with SK-BR-3 as test system: CC(C)C[C@H](NC(=O)[C@H](CCc1ccccc1)NC(=O)CN1CCOCC1)C(=O)N[C@@H](Cc1ccccc1)C(=O)N[C@@H](CC(C)C)C(=O)[C@@]1(C)CO1 [Carfilzomib]
12.6

What normalised viability appears in the records for this compound with SK-BR-3? CN1CCN(c2nc(C3=C(c4c[nH]c5ccccc45)C(=O)NC3=O)c3ccccc3n2)CC1 [Sotrastaurin]
103

* * *

Some compounds, each annotated with its measured EC50, CellTiter-Glo.
system: MDA-MB-468; details: 72 h

COMPOUND	EC50, CellTiter-Glo
CC(C)C[C@H](NC(=O)[C@H](CCc1ccccc1)NC(=O)CN1CCOCC1)C(=O)N[C@@H](Cc1ccccc1)C(=O)N[C@@H](CC(C)C)C(=O)[C@@]1(C)CO1 [Carfilzomib]	0.00342 µM

Report EC50, CellTiter-Glo for CC[C@@H]1C(=O)N(C)c2cnc(Nc3ccc(C(=O)N[C@H]4CC[C@H](N5CCN(CC6CC6)CC5)CC4)cc3OC)nc2N1C(C)C [Volasertib] tested on MDA-MB-468.
0.00698 µM

What measured EC50, CellTiter-Glo is associated with COc1cc2c(cc1-c1c(C)noc1C)ncc1[nH]c(=O)n([C@H](C)c3ccccn3)c12 [I-BET151] on MDA-MB-468?
3.11 µM

Quick check: EC50, CellTiter-Glo on MDA-MB-468, item CCCc1cc(C)[nH]c(=O)c1CNC(=O)c1cc(-c2ccnc(N3CCN(C)CC3)c2)cc2c1cnn2C(C)C [GSK343] ?
2.98 µM

Recall the recorded EC50, CellTiter-Glo for N[C@@H](Cc1ccc(N(CCCl)CCCl)cc1)C(=O)O [Melphalan] with MDA-MB-468 and state it.
0.203 µM

Form: Entry = CO[C@H](C(=O)[C@@H](O)[C@@H](C)O)[C@@H]1Cc2cc3cc(O[C@H]4C[C@@H](O[C@@H]5C[C@@H](O)[C@H](O)[C@@H](C)O5)[C@H](O)[C@@H](C)O4)c(C)c(O)c3c(O)c2C(=O)[C@H]1O[C@H]1C[C@@H](O[C@@H]2C[C@@H](O)[C@@H](O[C@@H]3C[C@](C)(O)[C@H](O)[C@@H](C)O3)[C@@H](C)O2)[C@H](O)[C@@H](C)O1 [Plicamycin] | System = MDA-MB-468 | EC50, CellTiter-Glo = ____
2.51 µM

* * *

test system: MDA-MB-468; assay: drug sensitivity score (DSS), CellTiter-Blue viability (DSS (AUC-based score)); higher = stronger viability inhibition; extreme values may be limits of the assay; details: incubation time: 72 h
Property: drug sensitivity score; scope: individual molecules

Any idea what drug sensitivity score was measured for N[C@@H](Cc1ccc(N(CCCl)CCCl)cc1)C(=O)O ?
0

Param item = NC(=O)c1cccc2cn(-c3ccc([C@@H]4CCCNC4)cc3)nc12 ; retrieve measured drug sensitivity score.
0

* * *

test system: CAL-148; experiment: normalised response (% of control), CellTox Green; higher = less cell death (100 = DMSO, 0 = benzethonium chloride kill control); conditions: incubation time: 72 h
Everything with normalised response lower than 90% is n; everything else, including exactly 90%, is y.

Below are worked cases with known answers.
COMPOUND	ASSIGNED CLASS
Nc1nc(Cl)nc2c1ncn2[C@@H]1O[C@H](CO)[C@@H](O)[C@@H]1F [Clofarabine] (100 nM)	y
CC/C(=C(\c1ccccc1)c1ccc(OCCN(C)C)cc1)c1ccccc1 [Tamoxifen] (100 nM)	y
CC(C)NC[C@@H](C(=O)N1CCN(c2ncnc3c2[C@H](C)C[C@H]3O)CC1)c1ccc(Cl)cc1 [GDC-0068] (10000 nM)	n
CC(C)n1nc(-c2ccc3oc(N)nc3c2)c2c(N)ncnc21 [INK128] (100 nM)	n

Please check the record Cc1c(C(=O)Nc2ccc(N3C[C@@H](C)O[C@@H](C)C3)nc2)cccc1-c1ccc(OC(F)(F)F)cc1 [Erismodegib] (100 nM) and state if its normalised response is at or above 90%.
y
